- target.entity: VEGFR1 (Homo sapiens, UniProt P17948)
- Construct: GST-VEGFR1 (residues R781-I1338); GST (N); made in house; host or cells: Sf9 insect cells
- Sequence (P17948 781-1338): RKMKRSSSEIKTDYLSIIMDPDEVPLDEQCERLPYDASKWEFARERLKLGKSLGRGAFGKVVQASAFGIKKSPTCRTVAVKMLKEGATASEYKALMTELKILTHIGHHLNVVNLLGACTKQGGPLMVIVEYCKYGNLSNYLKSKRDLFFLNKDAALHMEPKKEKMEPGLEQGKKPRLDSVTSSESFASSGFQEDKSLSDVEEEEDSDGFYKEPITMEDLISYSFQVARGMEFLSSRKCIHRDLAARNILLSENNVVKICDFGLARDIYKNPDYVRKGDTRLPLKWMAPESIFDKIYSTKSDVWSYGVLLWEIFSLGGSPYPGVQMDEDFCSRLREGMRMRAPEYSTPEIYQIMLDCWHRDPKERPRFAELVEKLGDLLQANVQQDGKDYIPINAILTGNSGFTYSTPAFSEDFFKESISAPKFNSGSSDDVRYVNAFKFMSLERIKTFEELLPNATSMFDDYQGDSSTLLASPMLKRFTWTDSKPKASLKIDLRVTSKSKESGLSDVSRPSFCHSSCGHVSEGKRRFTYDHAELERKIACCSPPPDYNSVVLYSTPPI
- experiment.notes: VEGFR1 Kinase-Glo kinase assay
- Format: biochemical
- measurement.conditions: table of representative values; read-out: IC50 (nM) VEGFR1
quantity.name: IC50 (nM)

1. Cc1cc(-c2cc(NC(=O)c3ccc(OCCN4CCOCC4)cc3)[nH]n2)ccc1NC(=O)Nc1cc(C2CC2)on1 [Compound 46c] = 53
2. O=C(NCc1ccc(-c2cc(NC(=O)c3ccc(OCCN4CCOCC4)cc3)[nH]n2)cc1)Nc1cc(C2CC2)on1 [Compound 59d] = 342
3. CCc1cc(NC(=O)Nc2ccc(-c3cnc(Nc4cc(N5CCN(CC)CC5)nc(C)n4)s3)cc2)no1 [Compound 112] = 20

(a) CCc1cc(NC(=O)NCc2ccc(-c3cc(NC(=O)c4ccc(CN5CCN(C)CC5)cc4)[nH]n3)cc2)no1 [Compound 62b]
(b) CN1CCN(Cc2ccc(C(=O)Nc3cc(-c4ccc(CNC(=O)Nc5cc(C6CC6)on5)cc4)n[nH]3)cc2)CC1 [Compound 62d]
(c) CCc1cc(NC(=O)Nc2ccc(-c3cc(NC(=O)c4ccc(OCCN5CCOCC5)cc4)[nH]n3)cc2C)no1 [Compound 46b]
Ask | Form: Sort by [IC50] Order [ ascending ] Please express your ranking as an ordered list of the labels.
Reply | a, b, c
(a: 29 nM, b: 180 nM, c: 290 nM)

* * *

- target.entity: VEGFR1 (Homo sapiens, UniProt P17948)
- Construct: GST-VEGFR1 (residues R781-I1338); GST (N); made in house; host or cells: Sf9 insect cells
- experiment.notes: VEGFR1 Kinase-Glo kinase assay
- Type: biochemical
- measurement.conditions: IC50, VEGFR1 assay, 1 μM ATP, bound in μM
- Method: The recombinant GST-VEGFR1 (residues R781-I1338) or GST-VEGFR2 (residues V789-V1356) containing kinase domain were expressed in Sf9 insect cells. […] A 70-μL aliquot of each reaction mixture was transferred to a black microtiter plate and the luminescence was measured on Wallac Vector 1420 multilabel counter (PerkinElmer, Shelton, Conn., USA).
# IC50 per record follows

1) CN1CCN(c2ccc(C(=O)Nc3cc(-c4ccc(CNC(=O)Oc5ccccc5)cc4)n[nH]3)cc2)CC1 [Compound 82] = < 1 µM

Now for the compound whose IC50 we want.
// IC50 value for CN1CCN(c2ccc(C(=O)Nc3cc(-c4ccc(NC(=O)Oc5ccccc5)cc4)n[nH]3)cc2)CC1 [Compound 68] : < 1 µM

* * *

- target.entity: VEGFR2 (Homo sapiens)
- Construct: GST-VEGFR2 (residues V789-V1356); GST (N); made in house; host or cells: Sf9 insect cells
- Sequence (P35968 789-1356): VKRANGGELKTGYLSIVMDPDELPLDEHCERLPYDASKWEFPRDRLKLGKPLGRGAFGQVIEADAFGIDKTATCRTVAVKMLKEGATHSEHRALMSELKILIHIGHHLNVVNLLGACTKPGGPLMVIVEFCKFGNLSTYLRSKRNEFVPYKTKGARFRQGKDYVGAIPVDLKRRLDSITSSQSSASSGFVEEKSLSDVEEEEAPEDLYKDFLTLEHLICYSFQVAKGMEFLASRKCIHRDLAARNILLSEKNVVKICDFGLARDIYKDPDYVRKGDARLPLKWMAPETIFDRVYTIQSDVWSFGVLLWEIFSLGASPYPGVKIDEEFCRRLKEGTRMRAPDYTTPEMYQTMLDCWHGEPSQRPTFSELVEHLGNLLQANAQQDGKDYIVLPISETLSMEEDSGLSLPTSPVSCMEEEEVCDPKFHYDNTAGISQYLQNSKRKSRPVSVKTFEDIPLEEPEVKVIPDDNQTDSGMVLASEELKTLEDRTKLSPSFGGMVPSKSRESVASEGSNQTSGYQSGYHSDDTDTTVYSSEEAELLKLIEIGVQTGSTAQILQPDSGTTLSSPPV
- experiment.notes: VEGFR2 Kinase-Glo kinase assay
- Format: biochemical
- measurement.conditions: IC50, VEGFR2 assay, 1 μM ATP, ranges in nM
- Protocol: The recombinant GST-VEGFR1 (residues R781-I1338) or GST-VEGFR2 (residues V789-V1356) containing kinase domain were expressed in Sf9 insect cells. […] A 70-μL aliquot of each reaction mixture was transferred to a black microtiter plate and the luminescence was measured on Wallac Vector 1420 multilabel counter (PerkinElmer, Shelton, Conn., USA).
# IC50 per record follows

1. CN1CCN(c2ccc(C(=O)Nc3cc(-c4ccc(CNC(=O)Oc5ccccc5)cc4)n[nH]3)cc2)CC1 [Compound 82] = 55 to 400 nM

Now for the compound whose IC50 we want.
// IC50 value for CN1CCN(c2ccc(C(=O)Nc3cc(-c4ccc(NC(=O)Oc5ccccc5)cc4)n[nH]3)cc2)CC1 [Compound 68] : 55 to 400 nM
